# target-entity: human TYK2 catalytic kinase (JH1) domain (Homo sapiens (Human))
# Sequence (P29597 897-1176): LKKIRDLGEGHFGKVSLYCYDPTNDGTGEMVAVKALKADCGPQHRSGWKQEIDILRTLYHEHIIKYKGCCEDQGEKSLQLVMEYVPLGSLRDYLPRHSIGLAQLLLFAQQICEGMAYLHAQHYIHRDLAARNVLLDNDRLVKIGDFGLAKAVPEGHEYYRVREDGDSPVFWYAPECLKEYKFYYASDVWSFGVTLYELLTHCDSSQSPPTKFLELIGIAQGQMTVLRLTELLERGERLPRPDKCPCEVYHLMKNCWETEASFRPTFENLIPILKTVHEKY
# experimental-details: ADP-Glo Kinase Assay, recombinant TYK2 catalytic kinase (JH1) domain
# Format: biochemical
# condition-description: recombinant JH1 domain 2 nM, 10 μM ATP, JAK3-974 peptide, mean, read-out: TYK2 biochem IC50 (nM) Mean
assay-endpoint: log10(IC50) (log10 of the value in nM)

molecule: CN(C)c1cc(-c2cc3c(N4CC5CCC(C4)N5C(=O)[C@@H]4C[C@H]4F)ccnn3c2)cnn1
log10(IC50): 1.14
--
molecule: Cn1cc(-c2cc3c(N4CC5CCC(C4)N5C(=O)[C@@H]4C[C@H]4F)ccnn3c2)cc(F)c1=O
log10(IC50): 0.82
--
molecule: Cn1cc(-c2nc3c(N4CC5CCC(C4)N5C(=O)[C@@H]4C[C@H]4F)ccnc3[nH]2)c(F)n1
log10(IC50): 0.28
--
molecule: COc1cc(-c2cn3nccc(N4CC5CCC(C4)N5C(=O)[C@@H]4C[C@H]4F)c3n2)ccn1
log10(IC50): 0.98
--
molecule: COc1ccc(-c2cc3c(N4CC5CCC(C4)N5C(=O)C4CC4)ncnn3c2)cn1
log10(IC50): 2.86
--
molecule: O=C([C@H]1C[C@@H]1F)N1C2CCC1CN(c1ncnn3cc(-c4cnn(C(F)F)c4)cc13)C2 (racemic) [Example 54]
log10(IC50): 1.57
--
molecule: Cn1cc(-c2cc3c(N4CC5CCC(C4)N5C(=O)[C@@H]4C[C@H]4F)ccnn3c2)c(F)n1
log10(IC50): 0.26
--
molecule: O=C([C@@H]1C[C@H]1F)N1C2CCC1CN(c1ncnc3[nH]c(-c4ccc(C(F)(F)F)nc4)cc13)C2
log10(IC50): 1.61
--
molecule: Cn1cc(-c2cc3c(N4CC5CCC(C4)N5S(=O)(=O)C4CC4)ccnn3c2)cn1
log10(IC50): 1.67
--
molecule: COc1cncc(-c2cc3c(N4CC5CCC(C4)N5C(=O)[C@@H]4C[C@H]4F)ccnn3c2)n1
log10(IC50): 1.37
--
molecule: N#Cc1ccc(-c2cc3c(N4CC5CCC(C4)N5C(=O)[C@@H]4C[C@H]4F)ncnc3[nH]2)cn1
log10(IC50): 1.50
--
molecule: COc1ccc(-c2cc3c(N4CC5CCC(C4)N5C(=O)[C@@H]4C[C@H]4F)ccnn3c2)nn1
log10(IC50): 0.57
--
molecule: O=C([C@@H]1C[C@H]1F)N1C2CCC1CN(c1ccnn3cc(-c4ccnc(C(F)(F)F)c4)cc13)C2
log10(IC50): 0.46
--
molecule: COc1cc(-n2cc3nccc(N4CC5CCC(C4)N5C(=O)[C@@H]4C[C@H]4F)c3n2)ccn1
log10(IC50): 1.04
--
molecule: Cn1ncc(-c2cc3c(N4CC5CCC(C4)N5C(=O)C4(F)CC4)ccnc3[nH]2)c1F
log10(IC50): 2.05
--
molecule: Cn1cc(-c2cc3c(N4CC5CCC(C4)N5C(=O)C(F)(F)F)ncnn3c2)cn1
log10(IC50): 2.42
--
molecule: O=C(C1CC1)N1C2CCC1CN(c1ncnn3cc(-c4cnn(C(F)F)c4)c(F)c13)C2
log10(IC50): 2.87
--
molecule: Cc1cc(-c2cc3c(N4CC5CCC(C4)N5C(=O)[C@@H]4C[C@H]4F)ncnc3[nH]2)ccn1
log10(IC50): 0.91
--
molecule: CNc1cc(-c2cc3c(N4CC5CCC(C4)N5C(=O)[C@@H]4C[C@H]4F)ccnn3c2)ccn1
log10(IC50): -0.15
--
molecule: Cn1cc(-c2cc3c(N4CC5CCC(C4)N5C(=O)C4CC4(F)F)ncnn3c2)cn1 (centres unmarked)
log10(IC50): 2.07
--
molecule: O=C(C1CC1)N1C2CCC1CN(c1c(F)cnn3cc(-c4cnn(C(F)F)c4)cc13)C2
log10(IC50): 1.75
--
molecule: Cn1cc(-c2cc3c(N4CC5CCC(C4)N5C(=O)[C@@H]4CC4(F)F)ccnn3c2)cn1
log10(IC50): 0.26
--
molecule: CNc1cncc(-c2cc3c(N4CC5CCC(C4)N5C(=O)[C@@H]4C[C@H]4F)ccnn3c2)n1
log10(IC50): 1.26
